Test: Phase I study: plasma pharmacokinetics of single inhaled doses (Example 15)
Type: in vivo, human
Setup Conditions: male, human, plasma, inhaled or intranasal, 900 ug, 900 μg single inhaled dose; healthy male volunteers; mean ± standard error
Counter-ions that a name gives are not always drawn.
Measured Endpoint: Cmax

• CN1CCc2cccc3c2[C@H]1Cc1ccc(O)c(O)c1-3 [Apomorphine HCl, apomorphine hydrochloride] = 7.4 to 8.8 ng/mL

----------
Test: Phase I study: plasma pharmacokinetics of single inhaled doses (Example 15)
Type: in vivo, human
Setup Conditions: male, human, plasma, inhaled or intranasal, 600 ug; 600 μg single inhaled dose; median values; read-out: tmax (converted)
Where a name gives a salt, the structure may show the parent alone.
Measured Endpoint: Tmax (min)

• CN1CCc2cccc3c2[C@H]1Cc1ccc(O)c(O)c1-3 [Apomorphine HCl, apomorphine hydrochloride] = 3

----------
Test: Phase I study: plasma pharmacokinetics of single inhaled doses (Example 15)
Format: in vivo, human
Setup Conditions: male, human, plasma, inhaled or intranasal, 600 ug, 600 μg inhaled; comparison table with Uprima
Where a name gives a salt, the structure may show the parent alone.
Measured Endpoint: AUC(0-inf) (ng·h/mL)

- CN1CCc2cccc3c2[C@H]1Cc1ccc(O)c(O)c1-3 [Apomorphine HCl, apomorphine hydrochloride]: 2.2
